Catalogue of IC50 values
biological target: wild type NTRK1 enzyme (Homo sapiens, UniProt P04629); construct: purchased BPS Bioscience 40280; experiment: NTRK1 Wild Type Assay at 1 mM ATP; format: biochemical; settings: 1 mM ATP; read-out: Enz NTRK1 IC50
Sequence (P04629 440-796 limits assumed): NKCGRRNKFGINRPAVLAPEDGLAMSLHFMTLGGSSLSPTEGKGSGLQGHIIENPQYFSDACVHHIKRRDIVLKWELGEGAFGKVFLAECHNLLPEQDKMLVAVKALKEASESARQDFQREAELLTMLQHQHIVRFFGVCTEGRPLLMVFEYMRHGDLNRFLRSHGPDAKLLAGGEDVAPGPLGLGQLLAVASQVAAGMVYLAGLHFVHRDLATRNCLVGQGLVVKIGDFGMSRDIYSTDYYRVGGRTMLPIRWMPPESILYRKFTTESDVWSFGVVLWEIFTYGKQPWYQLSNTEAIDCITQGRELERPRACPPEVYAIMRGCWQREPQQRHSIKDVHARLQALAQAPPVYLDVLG

// known answers, use as guide
{"columns": ["molecule", "assay_system", "IC50"],
 "data": [
  ["O=C(c1n[nH]c2ncnc(N[C@@H]3C=C[C@@H](O)[C@H]3O)c12)N1C[C@@H](F)C[C@@H]1c1cc(F)cnc1Cl", "wild type NTRK1 enzyme (Homo sapiens, UniProt P04629)", "10 to 100 nM"],
  ["O=C(c1n[nH]c2ncnc(N[C@@H]3CCOC[C@H]3O)c12)N1C[C@@H](F)C[C@@H]1c1cncc(F)c1", "wild type NTRK1 enzyme (Homo sapiens, UniProt P04629)", "< 10 nM"]
]}

In: Item [2H]C([2H])([2H])N(Cc1cc(F)ccc1F)C(=O)c1n[nH]c2ncnc(N[C@@H]3COCC[C@H]3O)c12 with wild type NTRK1 enzyme (Homo sapiens, UniProt P04629) - IC50?
Out: < 10 nM

In: Item O=C(c1n[nH]c2ncnc(N[C@H]3[C@H](O)[C@H](O)[C@@H]4C[C@@H]43)c12)N1C[C@@H](F)C[C@@H]1c1cc(F)cc(F)c1F with wild type NTRK1 enzyme (Homo sapiens, UniProt P04629) - IC50?
Out: < 10 nM

In: Item COc1cc(F)cc(CN(C)C(=O)c2n[nH]c3ncnc(N[C@@H]4CC[C@@H](O)[C@H]4O)c23)c1 with wild type NTRK1 enzyme (Homo sapiens, UniProt P04629) - IC50?
Out: 10 to 100 nM

In: Item COc1c(F)cc(F)cc1CNC(=O)c1n[nH]c2ncnc(N[C@@H]3COCC[C@H]3O)c12 with wild type NTRK1 enzyme (Homo sapiens, UniProt P04629) - IC50?
Out: 10 to 100 nM

In: Item CS(=O)(=O)[C@H]1C[C@@H](O)[C@H](Nc2ncnc3[nH]nc(C(=O)NCc4cc(F)ccc4F)c23)C1 with wild type NTRK1 enzyme (Homo sapiens, UniProt P04629) - IC50?
Out: < 10 nM

In: Item C[C@@H](NC(=O)c1n[nH]c2ncnc(N[C@@H]3CCC[C@H]3O)c12)c1cc(F)ccc1F with wild type NTRK1 enzyme (Homo sapiens, UniProt P04629) - IC50?
Out: 10 to 100 nM

In: Item O=C(c1n[nH]c2ncnc(N[C@@H]3C=C[C@@H](O)[C@H]3O)c12)N1C[C@@H](F)C[C@@H]1c1cc(F)cc(F)c1F with wild type NTRK1 enzyme (Homo sapiens, UniProt P04629) - IC50?
Out: 10 to 100 nM

* * *

target: wild type NTRK1 enzyme (Homo sapiens, UniProt P04629); construct: purchased BPS Bioscience 40280; assay: NTRK1 Wild Type Assay at 1 mM ATP; type: biochemical; details: wild-type NTRK enzyme; read-out: NTRK wt Enzyme Assay IC50
property: IC50 (nM)
Note: unit nM is implicit; provide only the numeric part.

In: Fill in: IC50 of CC(C)NC(=O)C1CCC(n2c(NC(=O)c3ccc(F)cc3)nc3ccc(CN4CCC(C(C)(C)O)CC4)cc32)CC1 (stereo not shown) [TSR-011] is ___
Out: 2.3

* * *

tested on: KM12 wild type colon carcinoma cell line harboring the TPM3-NTRK1 fusion protein; assay: NTRK wild type cellular assay (CellTiter-Glo growth inhibition); assay type: cell-based; conditions: Homo sapiens, KM12, 72 h, 72 hr, CellTiter-Glo; read-out: KM12 (WT) IC50
pIC50: −log10 of the molar value.
property: pIC50

{"columns": ["entry_smiles", "pIC50"],
 "data": [
  ["O=C(c1n[nH]c2ncnc(N[C@@H]3CCC[C@H]3O)c12)N1C[C@@H](F)C[C@@H]1c1cc(F)cnc1Cl", "> 8.00"],
  ["CN(Cc1cc(F)cc(Cl)c1F)C(=O)c1n[nH]c2ncnc(N[C@@H]3CC[C@@H](O)[C@H]3O)c12", "7.00 to 8.00"],
  ["O=C(NCc1cc(F)cc(F)c1F)c1n[nH]c2ncnc(N[C@@H]3CC[C@@H](O)[C@H]3O)c12", "6.00 to 7.00"],
  ["O=C(c1n[nH]c2ncnc(N[C@@H]3C[C@@H](O)C[C@H]3O)c12)N1C[C@@H](F)C[C@@H]1c1cc(F)ccc1F", "> 8.00"],
  ["O=C(c1n[nH]c2ncnc(N[C@@H]3COC[C@@H](O)[C@H]3O)c12)N1C[C@@H](F)C[C@@H]1c1cc(F)ccc1Cl", "7.00 to 8.00"],
  ["CN(Cc1cc(F)ccc1C(F)(F)F)C(=O)c1n[nH]c2ncnc(N[C@@H]3CC[C@@H](O)[C@H]3O)c12", "> 8.00"]
]}

Let's switch to this compound now.
In: Fill in: pIC50 of O=C(NCc1cc(F)ccc1OC(F)(F)F)c1n[nH]c2ncnc(N[C@@H]3CC[C@@H](O)[C@H]3O)c12 is ___
Out: 6.00 to 7.00

* * *

target: wild type NTRK1 enzyme (Homo sapiens, UniProt P04629); construct: purchased BPS Bioscience 40280; assay: NTRK1 Wild Type Assay at 1 mM ATP; type: biochemical; conditions: 1 mM ATP; read-out: Enz NTRK1 IC50
property: IC50

// known answers, use as guide
{"columns": ["molecule", "assay_system", "IC50"],
 "data": [
  ["O=C(NC(CO)c1cc(F)ccc1F)c1n[nH]c2ncnc(NC3CCCC3O)c12 (centres unmarked)", "wild type NTRK1 enzyme (Homo sapiens, UniProt P04629)", "< 10 nM"],
  ["O=C(c1n[nH]c2ncnc(N[C@H]3[C@H](O)[C@H](O)[C@@H]4C[C@@H]43)c12)N1C[C@@H](F)C[C@@H]1c1cccc(F)c1", "wild type NTRK1 enzyme (Homo sapiens, UniProt P04629)", "< 10 nM"]
]}

In: Fill in: IC50 of N#C[C@H]1C[C@H](c2cc(F)ccc2F)N(C(=O)c2n[nH]c3ncnc(N[C@@H]4CCC[C@H]4O)c23)C1 is ___
Out: < 10 nM

In: Fill in: IC50 of O=C(c1n[nH]c2ncnc(NC3CCOCC3O)c12)N1CC(F)CC1c1cccc(F)c1F (centres unmarked) is ___
Out: < 10 nM

* * *

Catalogue of pIC50 values
biological target: wild type NTRK1 enzyme (Homo sapiens); construct: purchased BPS Bioscience 40280; assay: NTRK1 Wild Type Assay at 1 mM ATP; assay type: biochemical; settings: 1 mM ATP; read-out: Enz NTRK1 IC50
pIC50: −log10 of the molar value.

// known answers, use as guide
{"columns": ["compound", "pIC50"],
 "data": [
  ["O=C(c1n[nH]c2ncnc(N[C@H]3[C@H](O)[C@H](O)[C@@H]4C[C@@H]43)c12)N1CC(F)(F)C[C@@H]1c1cc(F)ccc1F [Compound 112]", "7.00 to 8.00"],
  ["O=C(NCc1cc(F)ccc1F)c1n[nH]c2ncnc(N[C@@H]3[C@H]4C[C@H]4C[C@H]3O)c12 [Compound 3]", "< 6.00"],
  ["O=C(c1n[nH]c2ncnc(N[C@H]3[C@H](O)[C@H](O)[C@@H]4C[C@@H]43)c12)N1C[C@@H](F)C[C@@H]1c1cc(F)ccc1Cl [Compound 213]", "> 8.00"],
  ["O=C(c1n[nH]c2ncnc(N[C@@H]3C=C[C@@H](O)[C@H]3O)c12)N1C[C@@H](F)C[C@@H]1c1cc(F)ccc1OC(F)F [Compound 235]", "> 8.00"]
]}

Let's switch to this compound now.
In: Fill in: pIC50 of O=C(c1n[nH]c2ncnc(N[C@@H]3CCOC[C@H]3O)c12)N1C[C@@H](F)C[C@@H]1c1cc(Cl)ccc1F [Compound 200] is ___
Out: > 8.00

* * *

Catalogue of pIC50 values
test system: KM12 wild type colon carcinoma cell line harboring the TPM3-NTRK1 fusion protein; assay: NTRK wild type cellular assay (CellTiter-Glo growth inhibition); assay type: cell-based; conditions: Homo sapiens, KM12, 72 h, 72 hr, CellTiter-Glo; read-out: KM12 (WT) IC50
pIC50: −log10 of the molar value.

In: Item N#Cc1cc(F)cc([C@H]2C[C@H](F)CN2C(=O)c2n[nH]c3ncnc(N[C@@H]4CCCC(F)(F)[C@H]4O)c23)c1 with KM12 wild type colon carcinoma cell line harboring the TPM3-NTRK1 fusion protein - pIC50?
Out: 7.00 to 8.00

* * *

test system: KM12 wild type colon carcinoma cell line harboring the TPM3-NTRK1 fusion protein; test: NTRK wild type cellular assay (CellTiter-Glo growth inhibition); format: cell-based; details: Homo sapiens, KM12, 72 h, 72 hr, CellTiter-Glo; read-out: KM12 (WT) IC50
Catalogue of IC50 values

{"columns": ["entry_smiles", "result"],
 "data": [
  ["O=C(c1n[nH]c2ncnc(N[C@H]3[C@H](O)[C@H](O)[C@@H]4C[C@@H]43)c12)N1C[C@@H](F)C[C@@H]1c1cccc(F)c1", "< 0.01 µM"],
  ["O=C(c1n[nH]c2ncnc(N[C@@H]3CCCC(F)(F)[C@H]3O)c12)N1C[C@@H](F)C[C@@H]1c1cncc(F)c1", "0.01 to 0.1 µM"]
]}

Let's switch to this molecule now.
In: Fill in: IC50 of O=C(c1n[nH]c2ncnc(N[C@H]3[C@H](O)[C@H](O)[C@@H]4C[C@@H]43)c12)N1C[C@@H](F)C[C@@H]1c1cc(F)cc(F)c1 is ___
Out: < 0.01 µM

The origin of these recorded values is patent US11046697B2.
